- Test system: biotinylated human D-SDF-1
- Test: Competitive pull-down binding assay
- Measurement conditions: vs. 192-A10-001 and 192-A10-008
Observed property: binding affinity of derivatives of 192-A10-001 in competitive pull-down binding assay

Sequence text	Target of assay	Observed measurement
UGUGAAAGCAACAUGUCAAUGAAAGGUAGCCGCA (aptamer; chemistry not given here) [192-A10-003]	biotinylated human D-SDF-1	reduced binding affinity
GUGAAAGCAACAUGUCAAUGAAAGGUAGCCGC (chemistry not given here) [192-A10-004]	biotinylated human D-SDF-1	reduced binding affinity
AAAGCAACAUGUCAAUGAAAGGUAGC (chemistry not fully specified) [192-A10-007]	biotinylated human D-SDF-1	reduced binding affinity

* * *

- System: biotinylated human D-SDF-1
- Test: Competitive pull-down binding assay
- Measurement conditions: vs. 192-A10-001 and 192-A10-008
Observed property: binding affinity of derivatives of 192-A10-001 in competitive pull-down binding assay

> print(dat)
                              sequence.text      observed.measurement
1  GAAAGCAACAUGUCAAUGAAAGGUAGCC (chemistry not fully specified) [192-A10-006]  reduced binding affinity
2  UGAAAGCAACAUGUCAAUGAAAGGUAGCCG (chemistry not fully specified) [192-A10-005]  reduced binding affinity

* * *

- Target of assay: SDF-1 (Homo sapiens)
- Sequence (P48061 22-89): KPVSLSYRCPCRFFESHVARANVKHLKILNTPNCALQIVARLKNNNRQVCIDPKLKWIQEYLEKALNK
- Test: Inhibition of SDF-1-induced chemotaxis, Jurkat cells
- Assay type: cell-based
- Measurement conditions: Spiegelmer; Jurkat cells migrating towards 0.3 nM human SDF-1, 3 h, 37° C.; read-out: IC50, cell culture in vitro chemotaxis assay
Observed property: IC50 (nM)
State just the number; it will be interpreted in nM.

Please give the measured IC50 for this sequence: GAGAUAGGGGUUAGGGCUUAAAGUCGGCUGAUUCUC (aptamer; Made as D-RNA aptamer and L-RNA Spiegelmer, tested form not given here, further chemistry not given here) [190-A3-004]
0.1

Please give the measured IC50 for this sequence: GCUGUGAAAGCAACAUGUCAAUGAAAGGUAGCCGCAGC (aptamer; Made as D-RNA aptamer and L-RNA Spiegelmer, tested form not given here, further chemistry not given here) [192-A10-001]
0.12

Please give the measured IC50 for this sequence: AGCGUGGUGUGAUCUAGAUGUAUUGGCUGAUCCUAGUCAGGUACGCU (chemistry not fully specified) [193-G2-001]
0.08

Please give the measured IC50 for this sequence: CGGGAGGUUAGGGCUAGAAGUCGGUCCCG (chemistry not fully specified) [191-D5-007]
0.1

* * *

- Test system: biotinylated human D-SDF-1
- Test: Competitive pull-down binding assay
- Measurement conditions: aptamer level; reference 192-A10-001
Observed property: binding affinity in competitive pull-down binding assay vs. 192-A10-001

Sequence text	Observed measurement
GCUGUGAAAGUAACAUGUCAAUGAAAGGUAACCACAGC (aptamer; Made as D-RNA aptamer and L-RNA Spiegelmer, tested form not given here, further chemistry not given here) [192-G10]	Weaker binding affinity
GCUGUGAAAGUAACAUGUCAAUGAAAGGUAACCACUGC (aptamer; Made as D-RNA aptamer and L-RNA Spiegelmer, tested form not given here, further chemistry not given here) [192-G11]	Weaker binding affinity
GCAGUGAAAGUAACAUGUCAAUGAAAGGUAACCACAGC (aptamer; Made as D-RNA aptamer and L-RNA Spiegelmer, tested form not given here, further chemistry not given here) [192-D11]	Weaker binding affinity
